System: ATP;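 note: ATP exposure 15 min at 22 °C before imaging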
experiment_notes: switch fluorescence ratio, 500 uM ATP over buffer (Cy3 cluster intensity, sum of 5 cycles each) (fold (ratio)); higher = stronger signal-on switching upon ATP binding; sequences stand for … in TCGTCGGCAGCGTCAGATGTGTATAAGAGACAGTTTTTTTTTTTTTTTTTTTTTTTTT…TC
measurement_conditions: aptamer strand: ATP DNA aptamer (quencher-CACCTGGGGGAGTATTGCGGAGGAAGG + anchor), 100 nM annealed; ATP concentration: 500 uM
measured_quantity: switch fluorescence ratio
Reply: number alone, nothing else.

Below are worked cases with known answers.
TATACGATCT | 0.999
GACCCTAAC | 1.14
TTTTGCGAGG | 1.03
ATTTGTTGT | 0.973
ATTGAACGGA | 1
TTTTATTTAT | 1.02
CCGCATTTGT | 2.68
TGATTAATGA | 0.996

Any idea what its switch fluorescence ratio is? The sequence is `TTGGCTAATT`
1

Another sequence to check: `CGAGATAAGG`
1

Another sequence to check: `GCCCGCAGAA`
1.76

Another sequence to check: `TTTATATTTG`
1
